# experimental.system: T1, Chinese hamster BiP T229A-V461F double mutant (BiP^T229A-V461F), unmodified (Chinese hamster (Cricetulus griseus), UniProt G3I8R9 19-654, T229A | V461F)
# T1 construct: BiP (Grp78), Chinese hamster (Cricetulus griseus); Construct limits: see note of m1; source: E. coli M15, purified (Ni-NTA)
# T1 sequence (G3I8R9 19-654 T229A/V461F): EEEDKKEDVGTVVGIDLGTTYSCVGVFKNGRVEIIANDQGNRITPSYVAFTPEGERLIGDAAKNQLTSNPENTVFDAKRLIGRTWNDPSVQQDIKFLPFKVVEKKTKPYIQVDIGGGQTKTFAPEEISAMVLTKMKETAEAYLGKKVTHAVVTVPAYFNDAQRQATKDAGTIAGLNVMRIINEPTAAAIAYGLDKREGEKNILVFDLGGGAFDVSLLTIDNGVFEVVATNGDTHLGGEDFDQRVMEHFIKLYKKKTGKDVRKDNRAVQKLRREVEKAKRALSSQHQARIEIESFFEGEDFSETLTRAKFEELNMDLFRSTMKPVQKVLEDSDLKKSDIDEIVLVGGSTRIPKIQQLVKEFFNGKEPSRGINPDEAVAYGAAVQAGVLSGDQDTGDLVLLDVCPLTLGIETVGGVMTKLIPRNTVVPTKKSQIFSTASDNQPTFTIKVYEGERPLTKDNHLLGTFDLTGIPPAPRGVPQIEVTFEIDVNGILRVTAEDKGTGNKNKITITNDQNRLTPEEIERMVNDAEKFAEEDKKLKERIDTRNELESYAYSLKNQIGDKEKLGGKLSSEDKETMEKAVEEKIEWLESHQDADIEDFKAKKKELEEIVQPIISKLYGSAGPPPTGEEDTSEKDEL
# protocol.summary: BLI; Octet RED96, streptavidin sensors saturated with biotinylated GST-J (no P15); BiP^T229A-V461F at different concentrations in solution, 1 mM ATP in baseline, association and dissociation; HKM with 0.05% Triton X-100, 24°C; KD from steady state binding signals; binding sensitive to increasing KCl
# experimental.conditions: both partners purified
pKd: −log10 of the molar value.
quantity.name: pKd

[ask] Field request: pKd | item: wildtype J-domain of mouse P58/ERdj6 (residues 384-470) fused to GST (GST-J^WT) (domain or fragment, UniProt Q91YW3 384-470, looked up, biotinylated with Biotin-maleimide for the BLI experiments (a fraction of the purified protein); not biotinylated in pull-down, SEC and ATPase assays, J-domain of P58/ERdj6, mouse, residues 384-470; also called model J-domain) QRLLKQSQKRDYYKILGVKRNAKKQEIIKAYRKLALQWHPDNFQNEEEKKKAEKKFIDIAAAKEVLSDPEMRKKFDDGEDPLDAESQ
[reply] ~4.85
